We begin with a simple list: items and their reported pIC50.
Molecular target: T1, 6His-Fc-FGFR1c (human, UniProt P11362 141-376)
T1 construct: not shown: 6His tag and Fc as named in '6His-Fc-FGFR'
T1 sequence: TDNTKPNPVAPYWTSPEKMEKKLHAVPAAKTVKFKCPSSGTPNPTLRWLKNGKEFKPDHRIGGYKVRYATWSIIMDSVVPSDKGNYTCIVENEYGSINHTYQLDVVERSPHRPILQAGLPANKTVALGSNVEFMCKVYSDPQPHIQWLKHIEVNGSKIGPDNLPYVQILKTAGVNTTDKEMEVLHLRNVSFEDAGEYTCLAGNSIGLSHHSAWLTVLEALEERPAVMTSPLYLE
Assay: competition ELISA, blocks 6His-Fc-FGFR1c binding to coated FGF2
pIC50 is defined as minus the log10 of a concentration measured in mol/L.

binder="Ab59 (antibody, human IgG2, kappa, V domains shown, format in the assays not spelled out) VH: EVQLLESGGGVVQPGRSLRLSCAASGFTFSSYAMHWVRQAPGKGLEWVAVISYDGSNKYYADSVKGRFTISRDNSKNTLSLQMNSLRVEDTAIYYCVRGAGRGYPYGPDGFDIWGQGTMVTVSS VL: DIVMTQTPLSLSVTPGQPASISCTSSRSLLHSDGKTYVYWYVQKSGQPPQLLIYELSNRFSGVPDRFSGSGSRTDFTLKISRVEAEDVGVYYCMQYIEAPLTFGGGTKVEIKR" observed=8.65
binder="Ab34 (antibody, human IgG2, kappa, V domains shown, format in the assays not spelled out) VH: EVQLLESGGGVVQPGRSLRLSCAASGFTFSSYAMHWVRQAPGKGLEWVAVISYDGSNKYYADSVKGRFTISRDNSKNTLSLQMNSLRVEDTAIYYCVRGAGRGYTRGPDGFDIWGQGTMVTVSS VL: DIVMTQTPLSLSVTPGQPASISCTSSRSLLHSDGKTYVYWYVQKSGQPPQLLIYELSNRFSGVPDRFSGSGSRTDFTLKISRVEAEDVGVYYCMQYVEAPLTFGGGTKVEIKR" observed=8.28

Qu. Please supply the value of reported pIC50 for the item Ab65 (antibody, human IgG2, kappa, V domains shown, format in the assays not spelled out) VH: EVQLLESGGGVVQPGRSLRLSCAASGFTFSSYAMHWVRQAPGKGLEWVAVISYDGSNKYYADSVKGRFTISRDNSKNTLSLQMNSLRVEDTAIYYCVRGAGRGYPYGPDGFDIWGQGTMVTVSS VL: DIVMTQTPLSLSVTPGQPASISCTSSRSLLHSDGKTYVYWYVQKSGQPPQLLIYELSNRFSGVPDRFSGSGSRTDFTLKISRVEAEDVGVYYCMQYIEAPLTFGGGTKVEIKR
Ans. 8.50
